- Test system: OVCAR-5 ovarian
- EXPERIMENT: NCI-60 one-dose screen, 48 h (100 = growth as untreated, 0 = no growth, -100 = all killed)
- RECORDED_CONDITIONS: 10 µM unless noted
This is part of a sample that, as a whole, favours compounds with a hit. Of some 83,000 tested, about 20% had one in any assay.
REPORTED_ENDPOINT: growth (%)
Form entry: value (%) — number only.

Solved entries:
MOLECULE | growth (%)
C=CCn1c(SCC(=O)Nc2cccc(C(=O)/C=C/c3ccc(C)cc3)c2)nc2ccccc2c1=O | 101
C#CCOc1ccc(/C=N/Nc2nc(-c3cc(Cl)ccc3Cl)cs2)cc1 | 99.5
COc1ccc(-c2nn(-c3ccccc3)cc2/C=C/C(=O)c2ccc(NC(=O)CCCCCCC(=O)NO)cc2)cc1 | 108
COc1ccc(/C=C/C(=O)c2nnn(-c3ccc(C(=O)O)cc3)c2C)cc1OC | 97.8
NCCN1CCN(c2nc(-c3ccccc3)nc3nc(-c4ccccc4)oc23)CC1 | -82.9
O=C(COc1cccc2cccnc12)Nc1ccc(C(=O)/C=C/c2ccc(Cl)cc2)cc1 | 105

The molecule identified as O=c1[nH]c(CCl)nc2c1cnn2-c1ccccc1 registered its growth at 114

Reported growth for O=C(O)c1ccc(-n2cc(CNc3ccc(F)cc3)c(-c3ccc(C(F)(F)F)cc3)n2)cc1 was 106

Lookup result for Cc1cc(O)c(=O)cc2c1C[C@H]1CC(C)(C)/C=C/C[C@]3(C)Oc4cc(=O)c(O)cc(C)c4C[C@H]3C[C@H](O)[C@@]1(C)O2 ; measured growth: 26.9

The molecule identified as O=S(=O)(Nc1ccc(-n2cnc3cc(-c4ccc(O)cc4)ccc32)cc1)C1CC1 registered its growth at 107

Please fill in: growth reported for COc1ccccc1/C=C/C=N/NC1=NC2C(S1)N(C)C(=O)N2c1ccccc1 (configuration not stated) = 33.3

For record COc1ccc2c(c1)oc1c3[nH]c4ccccc4c3c3c(c21)C(=O)N(O)C3=O the listed growth is 110

Memo: O=C(Nc1cc(F)cc2cccnc12)c1cnc(N2CCOCC2)cn1 , reported growth: 65.6

Input N#Cc1c(NC(=O)c2ccc(F)c(Cl)c2)sc2c1CCC(=O)C2 . Output growth: -14.6

Kindly note the recorded growth for COc1cc(C(=O)C[n+]2ccc3ccccc3c2)cc(OC)c1OC , which is 102

Per the records, this molecule ( O=C(/C=C1\C=CN(CCCCCCF)c2ccccc21)n1ccc2ccccc21 ) has growth equal to 99.3

Measured growth of CC1OC(O[C@@H]2[C@H](O)C(CO)OC(O[C@H]3COC(O[C@H]4CC[C@]5(C)[C@H]6CC[C@]78OC[C@@]9(CCC(C)(C)C[C@H]97)[C@H](O)C[C@@]8(C)[C@]6(C)CC[C@H]5C4(C)C)[C@@H](OC4OC(CO)[C@@H](O)[C@@H](O)[C@@H]4O)[C@@H]3O)[C@H]2OC2OC[C@@H](O)[C@@H](O)[C@@H]2O)[C@@H](O)[C@@H](O)[C@H]1O (some centres not stated) : -69

* * *

- Tested on: NCI-H23 lung
- EXPERIMENT: NCI-60 one-dose screen, 48 h (100 = growth as untreated, 0 = no growth, -100 = all killed)
- RECORDED_CONDITIONS: 10 µM unless noted
Compounds without any hit were thinned out: in the full panel of roughly 83,000, 20% have a hit.
Mark Not satisfied for growth values under 60%, and Satisfied for everything at or above.

Say whether Cc1cn(-c2cc(NC(=O)c3cncc(C#Cc4cnc5ccc(OCCCS(C)(=O)=O)nn45)c3)cc(C(F)(F)F)c2)cn1 shows growth of 60% or more.
Not satisfied

Exam item: decide whether the reported growth for COc1ccc(-c2nc3cc(Cl)c(Cl)cc3n2CC(=O)N=Nc2c(O)[nH]c3ccccc23)cc1 is at least 60%.
Not satisfied

Could you tell me if the measured growth of CCOc1c(C#N)c(Nc2ccc(S(N)(=O)=O)cc2)c(C#N)c2nnc(C)n12 reaches 60% or more?
Satisfied

Threshold query (growth >= 60%) on COc1cc(C(=O)C[n+]2ccc3ccccc3c2)cc(OC)c1OC
Satisfied

Reported growth reaches at least 60% for CNC(=O)c1cc(Oc2ccc3nc(NC(=O)c4ccc(CN5CCCN(C)CC5)c(C(F)(F)F)c4)sc3c2)ccn1 ?
Not satisfied

Would you say CCN1C(=O)N(CC)C2SC(N/N=C/c3ccc(F)cc3)=NC21 (configuration not stated) shows growth at minimum 60%?
Not satisfied

* * *

- Tested on: SF-539 CNS
- EXPERIMENT: NCI-60 one-dose screen, 48 h (100 = growth as untreated, 0 = no growth, -100 = all killed)
- RECORDED_CONDITIONS: 10 µM unless noted
Compounds without any hit were thinned out: in the full panel of roughly 83,000, 20% have a hit.
REPORTED_ENDPOINT: growth (%)
The reply should be a number in %, with the unit left off.

Worked cases, growth given:
STRUCTURE_AS_SMILES | growth / %
O=C1CC2(CCOCC2)Oc2ncccc21 | 27.7
O=C(/C=C/c1cn(-c2ccccc2)nc1-c1ccc(Cl)cc1)c1cc2ccccc2oc1=O | 68.4
O=c1cc(-c2ccccc2)nc2sc(-c3c[nH]c4ccc(F)cc34)nn12 | 68
N/C(=N\c1nc2c(Cl)cccc2s1)C(Cl)(Cl)Cl | 71.1
O=C1c2c(c3c4cccnc4[nH]c3c3ccc4ccccc4c23)C(=O)N1CCN1CCOCC1 | 55.6

GET /value?item= Oc1ccc(CSc2nnc(-c3ccccc3)o2)c2cccnc12 &field=growth returns 13.2

Lab note: measured growth of Cc1ccc(Nc2ncnc3c2c(C)nn3-c2ccc([N+](=O)[O-])cc2)cc1 was 74.4

growth in this record for O=C(O)c1ccc(-n2cc(CNc3ccc(F)cc3)c(-c3ccc(C(F)(F)F)cc3)n2)cc1 : 88.8

Given item Nc1ccc(-c2nnc(SCc3ccc(O)c4ncccc34)o2)cc1 , the value recorded as its growth is -14.1

Recorded result, COc1ccccc1/C=C/C(=O)c1nnn(-c2ccc(C(=O)O)cc2)c1C , growth: 91.4

GET /value?item= CC(=O)c1sc(Nc2cccc(Nc3nc(C)c(C)s3)c2)nc1C &field=growth returns 72.2

* * *

- Tested on: SK-OV-3 ovarian
- EXPERIMENT: NCI-60 one-dose screen, 48 h
- RECORDED_CONDITIONS: 10 µM unless noted
Compounds without any hit were thinned out: in the full panel of roughly 83,000, 20% have a hit. Active and inactive are the calls of the source. How the source made its calls: active means growth percent below 10; inactive means the rest.
Hi there, use one of these labels in your reply, thanks! active, inactive

Solved cases (5 shown):
COMPOUND | TGT | DISCRETE_LABEL
COc1cc(CNC(=O)Cc2ccccc2[N+](=O)[O-])ccc1OCC(=O)NO | SK-OV-3 ovarian | inactive
Oc1ccccc1-c1nnc(SCc2ccc(O)c3ncccc23)n1-c1ccccc1 | SK-OV-3 ovarian | active
C#CCOc1ccc(C(Nc2cc(Cl)ccc2Cl)c2nnnn2C2CCCCC2)cc1 (centres undefined) | SK-OV-3 ovarian | inactive
O=C1Nc2ccc(Cl)cc2/C1=C/c1ccc(OCc2ccc(F)cc2)cc1 | SK-OV-3 ovarian | inactive
COc1cc2c3c(n(CCCNC4CCCC4)c(=O)c2cc1OC)-c1cc2c(cc1C3=O)OCO2 | SK-OV-3 ovarian | inactive

GET /call?item= CCOC(=O)C1=C(C)Nc2nc3ccccc3n2C1c1ccccc1 (centres undefined) returns the recorded outcome of this test.
inactive

Lab log entry: CCCCCCNC(=O)Oc1ccc(/C(=C(/C)c2ccccc2)c2ccc(OCCN(C)C)cc2)cc1 — outcome as called in the assay?
inactive

Returns: the outcome recorded for C/C(=C(/C)C1CC1CCN(C(=O)c1ccccn1)S(=O)(=O)c1ccc(C)cc1)C1CCCCC1 (centres undefined) in this assay.
inactive

Could you check what this test reported for Cc1ccc(NC(=O)c2ccc(CN3CCN(C)CC3)c(C(F)(F)F)c2)cc1Oc1ccc(-c2[nH]nc3ncnc(N)c23)cc1 ?
inactive

* * *

- System: KM12 colon
- EXPERIMENT: NCI-60 one-dose screen, 48 h (100 = growth as untreated, 0 = no growth, -100 = all killed)
- RECORDED_CONDITIONS: 10 µM unless noted
- Protocol: Growth inhibition of the KM12 human tumor cell line is measured as a screen for anti-cancer activity. Cells are grown in 96 well plates and exposed to the test compound for 48 hours. Compounds are tested at a single concentration, which is 10^-5 M for most compounds. The reported endpoint is percent growth (GI% or GIPRCNT), where numbers from 0 - 100% represent growth inhibition, and numbers from -100% - 0 represent cell death. For example, a value of 40 represents 60% growth inhibition. […]
About 83,000 compounds went through this panel and 20% of them were active in at least one assay; those are over-represented in the sample as a whole. Activity calls are given as the source filed them. How the source made its calls: active means growth percent below 10; inactive means the rest.
The following compounds are listed with their measured growth values.

STRUCTURE_AS_SMILES | RESULT
COc1ccc(/C=C/C(=O)c2nnn(-c3ccc(C(=O)O)cc3)c2C)cc1OC | 101% (inactive)
Cc1ccc(S(=O)(=O)N/N=C/c2cn(-c3ccc(F)cc3)nc2-c2ccc(S(C)(=O)=O)cc2)cc1 | 102% (inactive)
COc1cc(O)c2c(c1)/C=C/C[C@H](O)[C@H](O)C(=O)/C=C\C[C@H](C)OC2=O | 19.1% (inactive)

Pending compound:
# compound COC(=O)c1nc(-c2ccc(C)cc2)oc1S(=O)(=O)N1CCN(c2oc(-c3ccccc3)nc2C#N)CC1 ; its growth = 101% (inactive)
